These entries and their values trace back to patent US12006328B2.

Biological target: GluN2D-containing NMDA receptors (Homo sapiens, UniProt O15399)
Sequence (O15399 28-1336, other chains not shown): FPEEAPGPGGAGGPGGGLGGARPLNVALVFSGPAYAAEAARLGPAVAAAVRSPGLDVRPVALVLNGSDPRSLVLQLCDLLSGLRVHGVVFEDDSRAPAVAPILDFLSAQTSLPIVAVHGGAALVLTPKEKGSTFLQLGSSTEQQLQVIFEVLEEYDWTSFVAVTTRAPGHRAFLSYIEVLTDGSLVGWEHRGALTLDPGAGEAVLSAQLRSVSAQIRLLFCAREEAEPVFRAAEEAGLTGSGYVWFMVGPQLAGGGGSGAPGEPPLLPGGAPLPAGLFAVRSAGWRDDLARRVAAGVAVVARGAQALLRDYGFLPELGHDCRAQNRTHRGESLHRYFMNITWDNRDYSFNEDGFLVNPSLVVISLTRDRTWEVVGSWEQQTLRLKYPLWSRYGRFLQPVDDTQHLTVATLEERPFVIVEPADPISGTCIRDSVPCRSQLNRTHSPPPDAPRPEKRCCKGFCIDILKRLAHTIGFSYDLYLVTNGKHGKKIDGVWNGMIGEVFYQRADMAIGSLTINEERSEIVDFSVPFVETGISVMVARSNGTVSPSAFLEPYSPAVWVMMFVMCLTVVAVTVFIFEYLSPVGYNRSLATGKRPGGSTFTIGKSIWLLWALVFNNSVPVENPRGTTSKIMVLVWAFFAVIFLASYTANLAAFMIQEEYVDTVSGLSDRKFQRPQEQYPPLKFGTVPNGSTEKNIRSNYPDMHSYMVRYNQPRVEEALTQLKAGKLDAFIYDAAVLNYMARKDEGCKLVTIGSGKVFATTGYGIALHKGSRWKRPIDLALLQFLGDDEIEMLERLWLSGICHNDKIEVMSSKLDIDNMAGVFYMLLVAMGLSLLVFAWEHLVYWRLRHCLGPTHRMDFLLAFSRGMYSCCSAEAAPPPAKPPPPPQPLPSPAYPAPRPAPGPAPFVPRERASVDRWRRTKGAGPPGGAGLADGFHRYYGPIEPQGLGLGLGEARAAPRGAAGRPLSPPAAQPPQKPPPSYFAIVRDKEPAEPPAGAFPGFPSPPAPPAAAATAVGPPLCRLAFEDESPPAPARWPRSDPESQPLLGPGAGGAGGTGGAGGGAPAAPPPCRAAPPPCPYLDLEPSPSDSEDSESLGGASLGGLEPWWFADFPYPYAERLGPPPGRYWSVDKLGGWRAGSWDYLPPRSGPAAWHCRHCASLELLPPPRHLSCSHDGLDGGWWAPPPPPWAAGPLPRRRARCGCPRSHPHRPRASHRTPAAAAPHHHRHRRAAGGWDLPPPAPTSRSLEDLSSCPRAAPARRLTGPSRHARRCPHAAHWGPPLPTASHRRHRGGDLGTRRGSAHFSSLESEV
Assay: Two-electrode voltage-clamp recordings from Xenopus laevis oocytes, GluN2D
Format: cell-based
Conditions: 10 μM test compound with glutamate 100 μM and glycine 30 μM; percent of response without compound; Tables 1-5
quantity: I10 μM/ICONTROL (mean ± SEM, %) Glu N2D

smiles: CC(C)c1ccc(-c2csc3ncn(CC(=O)N4CCCC4)c(=O)c23)cc1
study system: GluN2D-containing NMDA receptors (Homo sapiens, UniProt O15399)
reported: 98
//
smiles: Cc1sc2ncn(CCC(=O)O)c(=O)c2c1-c1cccc(Cl)c1
study system: GluN2D-containing NMDA receptors (Homo sapiens, UniProt O15399)
reported: 97
//
smiles: Cc1sc2ncn(CC(=O)N3CCCC3)c(=O)c2c1-c1cccc(N=[N+]=[N-])c1
study system: GluN2D-containing NMDA receptors (Homo sapiens, UniProt O15399)
reported: 175
//
smiles: COc1ccc(C(=O)Cn2cnc3sc(C)c(-c4cccc(I)c4)c3c2=O)cc1
study system: GluN2D-containing NMDA receptors (Homo sapiens, UniProt O15399)
reported: 94
//
smiles: O=C(Cn1cnc2sc3c(c2c1=O)CCCC3)c1ccc(Cl)cc1Cl
study system: GluN2D-containing NMDA receptors (Homo sapiens, UniProt O15399)
reported: 97

a = Cc1sc2ncn(CC(=O)N3CCCC3)c(=O)c2c1-c1cc(Br)cc(Br)c1
b = Cc1sc2ncn(CC(=O)N3CCCC3)c(=O)c2c1-c1ccc(OCc2ccccc2)cc1
c = Cc1sc2ncn(Cc3cn(CCC4OCCCO4)nn3)c(=O)c2c1-c1cccc(Cl)c1
Query: Highest I10 μM/ICONTROL (mean ± SEM, %) Glu N2D first, then in falling order down to the smallest. Your reply should list the labels following the order given in the request.
Reply: a, b, c

###

Target: GluN2D-containing NMDA receptors (Homo sapiens, UniProt O15399)
Assay: Two-electrode voltage-clamp recordings from Xenopus laevis oocytes, GluN2D
Assay type: cell-based
Details: 10 μM test compound with glutamate 100 μM and glycine 30 μM; percent of response without compound; Tables 1-5
quantity: I10 μM/ICONTROL (mean ± SEM, %) Glu N2D

A = Cc1sc2ncn(CC(=O)Oc3ccccc3)c(=O)c2c1-c1cccc(Cl)c1
B = Cc1sc2ncn(CC(=O)N3CCCC3)c(=O)c2c1-c1cccc([N+](=O)[O-])c1
Query: // which entry has the larger I10 μM/ICONTROL (mean ± SEM, %) Glu N2D value, A or B ? # reply format: chosen label
Reply: B
(B: 253%, A: 89%)

###

Molecular target: UniProtKB Q14957
Experiment: Two-electrode voltage-clamp recordings from Xenopus laevis oocytes, GluN2C
Assay type: cell-based
Settings: 10 μM test compound with glutamate 100 μM and glycine 30 μM; percent of response without compound; Tables 1-5
quantity: I10 μM/ICONTROL (mean ± SEM, %) Glu N2C

compound: CCOC(=O)Cn1cnc2sc(C)c(-c3cccc(Cl)c3)c2c1=O [1 / 3-Cl—Ph / Me / OEt]
quantity unit: %
I10 μM/ICONTROL (mean ± SEM, %) Glu N2C: 141

compound: Cc1sc2ncn(CC(=O)N3CCCC3)c(=O)c2c1-c1cc(C(F)(F)F)cc(C(F)(F)F)c1 [3,5-CF3—Ph / Me]
quantity unit: %
I10 μM/ICONTROL (mean ± SEM, %) Glu N2C: 115

compound: CC(C)c1ccc(-c2csc3ncn(CC(=O)N4CCCC4)c(=O)c23)cc1 [4-^iPr—Ph / H]
quantity unit: %
I10 μM/ICONTROL (mean ± SEM, %) Glu N2C: 100

A = Cc1sc2ncn(CC(=O)N3CCCC3)c(=O)c2c1-c1ccc(OCc2ccccc2)cc1 [4-BnO—Ph / Me]
B = Cc1sc2ncn(CC(=O)N3CCCC3)c(=O)c2c1-c1cccc(Br)c1 [3-Br—Ph / Me]
Query: For this pair, A and B , which shows a numerically higher I10 μM/ICONTROL (mean ± SEM, %) Glu N2C? # reply format: chosen label
Reply: B
(B: 241%, A: 135%)

###

Target: GluN2B-containing NMDA receptors (Homo sapiens)
Sequence (Q13224 27-1484, other chains not shown): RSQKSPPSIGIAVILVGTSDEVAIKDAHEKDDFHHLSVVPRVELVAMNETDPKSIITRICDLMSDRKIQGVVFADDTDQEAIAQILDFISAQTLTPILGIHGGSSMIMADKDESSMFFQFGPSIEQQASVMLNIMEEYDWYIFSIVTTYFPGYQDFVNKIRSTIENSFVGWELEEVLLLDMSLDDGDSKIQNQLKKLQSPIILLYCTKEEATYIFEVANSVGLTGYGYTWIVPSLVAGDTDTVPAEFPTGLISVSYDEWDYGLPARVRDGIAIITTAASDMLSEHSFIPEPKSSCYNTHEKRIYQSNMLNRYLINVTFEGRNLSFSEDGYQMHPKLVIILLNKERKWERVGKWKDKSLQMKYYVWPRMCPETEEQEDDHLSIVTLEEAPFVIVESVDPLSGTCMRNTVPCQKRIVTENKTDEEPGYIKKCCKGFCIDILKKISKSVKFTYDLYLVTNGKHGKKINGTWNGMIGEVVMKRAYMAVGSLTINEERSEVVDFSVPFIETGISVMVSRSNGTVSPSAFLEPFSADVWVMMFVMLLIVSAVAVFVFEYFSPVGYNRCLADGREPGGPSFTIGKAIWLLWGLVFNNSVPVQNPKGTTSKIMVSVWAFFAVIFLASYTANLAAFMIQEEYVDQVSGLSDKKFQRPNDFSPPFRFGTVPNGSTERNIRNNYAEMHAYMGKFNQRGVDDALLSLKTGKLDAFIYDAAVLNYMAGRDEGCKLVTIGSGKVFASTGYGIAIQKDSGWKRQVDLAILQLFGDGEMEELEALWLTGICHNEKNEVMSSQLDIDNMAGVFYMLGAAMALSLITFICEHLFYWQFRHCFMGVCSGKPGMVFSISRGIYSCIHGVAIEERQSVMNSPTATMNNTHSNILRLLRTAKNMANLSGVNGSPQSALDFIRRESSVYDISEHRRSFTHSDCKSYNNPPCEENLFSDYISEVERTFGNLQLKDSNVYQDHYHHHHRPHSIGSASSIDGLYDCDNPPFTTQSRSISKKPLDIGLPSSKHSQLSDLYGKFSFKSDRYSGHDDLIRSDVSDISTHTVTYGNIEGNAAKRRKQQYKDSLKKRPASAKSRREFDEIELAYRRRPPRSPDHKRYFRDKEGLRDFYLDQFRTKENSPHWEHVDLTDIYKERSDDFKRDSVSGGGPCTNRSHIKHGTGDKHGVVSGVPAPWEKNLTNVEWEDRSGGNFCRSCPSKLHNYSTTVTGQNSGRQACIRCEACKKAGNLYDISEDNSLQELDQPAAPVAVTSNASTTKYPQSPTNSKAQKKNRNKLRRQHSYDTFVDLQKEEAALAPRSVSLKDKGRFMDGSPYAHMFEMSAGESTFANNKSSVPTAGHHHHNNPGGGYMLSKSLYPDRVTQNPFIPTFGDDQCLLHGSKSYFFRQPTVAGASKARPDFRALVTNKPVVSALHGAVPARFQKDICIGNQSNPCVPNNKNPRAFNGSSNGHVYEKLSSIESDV
Test: Two-electrode voltage-clamp recordings from Xenopus laevis oocytes, GluN2B
Settings: Table 2; glutamate 100 μM, glycine 30 μM; Hill fit; read-out: IC50 Glu N2B
pIC50: −log10 of the molar value.
quantity: pIC50

Before answering, review these 3 worked examples.
smiles: Cc1sc2ncn(CC(=O)c3cccs3)c(=O)c2c1-c1cccc(Cl)c1
study system: GluN2B-containing NMDA receptors (Homo sapiens)
pIC50: 4.85

smiles: Cc1sc2ncn(CC(=O)N3CCCC3)c(=O)c2c1-c1ccc(Cl)cc1
study system: GluN2B-containing NMDA receptors (Homo sapiens)
pIC50: 4.96

smiles: Cc1sc2ncn(CC(=O)c3cccs3)c(=O)c2c1-c1cccc(I)c1
study system: GluN2B-containing NMDA receptors (Homo sapiens)
pIC50: 5.11

I = Cc1sc2ncn(CC(=O)c3ccccc3)c(=O)c2c1-c1cccc(I)c1
II = CCOC(=O)Cn1cnc2sc(C)c(-c3cccc(Cl)c3)c2c1=O
Query: # query: argmin of pIC50 over I and II Respond using the label that marks the chosen record.
Reply: II

###

Biological target: GluN2C-containing NMDA receptors (Homo sapiens)
Assay: Two-electrode voltage-clamp recordings from Xenopus laevis oocytes, GluN2C
Settings: Table 1; glutamate 100 μM, glycine 30 μM; Hill fit; read-out: EC50 Glu N2C
pEC50: −log10 of the molar value.
quantity: pEC50

Worked set:
smiles: Cc1sc2ncn(CC(=O)N3CCCC3)c(=O)c2c1-c1cccc(Br)c1
pEC50: 4.77

smiles: Cc1sc2ncn(CC(=O)N3CCCC3)c(=O)c2c1-c1cccc(N=[N+]=[N-])c1
pEC50: 5.00

smiles: Cc1sc2ncn(CC(=O)N3CCCC3)c(=O)c2c1-c1cccc([N+](=O)[O-])c1
pEC50: 4.44

smiles: Cc1sc2ncn(CC(=O)N3CCCC3)c(=O)c2c1-c1cccc(Cl)c1
pEC50: 4.44

smiles: O=C(Cn1cnc2scc(-c3ccc(Cl)cc3)c2c1=O)N1CCCC1
pEC50: 4.12

A = Cc1sc2ncn(CC(=O)N3CCCC3)c(=O)c2c1-c1ccccc1
B = Cc1sc2ncn(CC(=O)N3CCCC3)c(=O)c2c1-c1cccc(I)c1
C = [N-]=[N+]=Nc1ccc(-c2csc3ncn(CC(=O)N4CCCC4)c(=O)c23)cc1
D = Cc1sc2ncn(CC(=O)N3CCCC3)c(=O)c2c1-c1ccc(OCc2ccccc2)cc1
Query: Put these in order: smallest pEC50 first, largest last. Please list the labels in the order you were asked to rank them.
Reply: C, D, A, B
(C: 3.99, D: 4.46, A: 4.85, B: 5.12)

1 = Cc1sc2ncn(CC(=O)N3CCCC3)c(=O)c2c1-c1cccc(C(F)(F)F)c1
2 = Cc1sc2ncn(CC(=O)N3CCCC3)c(=O)c2c1-c1ccc(F)cc1
Query: Lower value for measured pEC50? Options: 1 , 2 Give the label under which the chosen entry appears.
Reply: 2
(2: 4.09, 1: 4.89)

P = Cc1sc2ncn(CC(=O)N3CCCC3)c(=O)c2c1-c1ccc(Br)cc1
Q = Cc1sc2ncn(CC(=O)N3CCCC3)c(=O)c2c1-c1cc(F)cc(F)c1
Query: Param pair: P , Q . Output: the one whose pEC50 is numerically greater. // output: label of the selected item
Reply: P
(P: 4.22, Q: 3.88)

###

Biological target: GluN2D-containing NMDA receptors (Homo sapiens)
Assay: Two-electrode voltage-clamp recordings from Xenopus laevis oocytes, GluN2D
Type: cell-based
Conditions: Table 2; in brackets below IC50; percent of response without compound

compound: Cc1ccc(-c2csc3ncn(CC(=O)N4CCC4)c(=O)c23)cc1 [1 / 4-Me—Ph / H / —Nazetidine]
maximal potentiation Glu N2D: (0) %

###

Target: GluN2C-containing NMDA receptors (Homo sapiens, UniProt Q14957)
Sequence (Q14957 20-1233, other chains not shown): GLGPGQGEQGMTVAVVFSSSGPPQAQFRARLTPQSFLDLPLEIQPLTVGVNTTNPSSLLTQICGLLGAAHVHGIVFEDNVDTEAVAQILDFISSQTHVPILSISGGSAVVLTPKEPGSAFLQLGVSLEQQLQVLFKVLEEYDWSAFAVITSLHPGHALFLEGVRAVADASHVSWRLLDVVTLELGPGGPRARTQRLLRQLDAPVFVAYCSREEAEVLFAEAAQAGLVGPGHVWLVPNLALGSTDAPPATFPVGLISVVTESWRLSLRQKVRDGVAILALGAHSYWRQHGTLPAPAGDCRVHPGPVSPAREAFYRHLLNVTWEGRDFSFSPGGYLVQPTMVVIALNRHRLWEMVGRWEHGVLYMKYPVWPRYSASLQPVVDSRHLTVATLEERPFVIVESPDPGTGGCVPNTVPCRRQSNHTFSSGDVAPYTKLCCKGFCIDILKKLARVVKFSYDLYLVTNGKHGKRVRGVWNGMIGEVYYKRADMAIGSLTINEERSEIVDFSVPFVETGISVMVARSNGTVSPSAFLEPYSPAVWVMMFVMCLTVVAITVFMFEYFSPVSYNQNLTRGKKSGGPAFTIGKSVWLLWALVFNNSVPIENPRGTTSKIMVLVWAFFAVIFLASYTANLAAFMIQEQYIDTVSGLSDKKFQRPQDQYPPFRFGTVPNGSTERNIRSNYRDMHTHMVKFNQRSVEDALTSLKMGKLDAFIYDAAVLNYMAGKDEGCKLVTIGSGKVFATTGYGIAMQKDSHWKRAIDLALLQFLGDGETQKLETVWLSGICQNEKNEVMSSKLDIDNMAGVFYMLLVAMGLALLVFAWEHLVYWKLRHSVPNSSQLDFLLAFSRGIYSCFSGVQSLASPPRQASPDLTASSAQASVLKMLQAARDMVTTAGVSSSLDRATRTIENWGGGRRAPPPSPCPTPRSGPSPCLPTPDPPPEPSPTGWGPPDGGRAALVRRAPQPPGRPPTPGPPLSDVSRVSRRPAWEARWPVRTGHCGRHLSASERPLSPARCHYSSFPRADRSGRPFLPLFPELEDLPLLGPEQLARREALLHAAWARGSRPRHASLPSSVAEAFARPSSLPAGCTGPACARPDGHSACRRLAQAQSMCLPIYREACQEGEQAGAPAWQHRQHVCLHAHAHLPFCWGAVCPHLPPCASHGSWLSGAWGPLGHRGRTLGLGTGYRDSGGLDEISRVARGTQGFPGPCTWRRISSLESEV
Assay: Two-electrode voltage-clamp recordings from Xenopus laevis oocytes, GluN2C
Assay type: cell-based
Conditions: 10 μM test compound with glutamate 100 μM and glycine 30 μM; percent of response without compound; Tables 1-5
quantity: I10 μM/ICONTROL (mean ± SEM, %) Glu N2C

Some solved entries appear below for comparison.
compound: Cc1sc2ncn(Cc3cnnn3CCC3OCCCO3)c(=O)c2c1-c1cccc(Cl)c1
quantity unit: %
I10 μM/ICONTROL (mean ± SEM, %) Glu N2C: 92
--
compound: Cc1sc2ncn(CC(=O)N3CCCC3)c(=O)c2c1-c1cccc(C(F)(F)F)c1 [3-CF3—Ph / Me]
quantity unit: %
I10 μM/ICONTROL (mean ± SEM, %) Glu N2C: 368
--
compound: Cc1sc2ncn(CC(=O)N3CCCC3)c(=O)c2c1-c1ccc(N)cc1 [4-NH2—Ph / Me]
quantity unit: %
I10 μM/ICONTROL (mean ± SEM, %) Glu N2C: 116
--
compound: COc1cccc(C(=O)Cn2cnc3sc(C)c(-c4cccc(I)c4)c3c2=O)c1 [1 / 3-I—Ph / Me / 3-OMe—Ph]
quantity unit: %
I10 μM/ICONTROL (mean ± SEM, %) Glu N2C: 107
--
compound: CSc1ccc(-c2csc3ncn(CC(=O)N4CCCC4)c(=O)c23)cc1 [4-MeS—Ph / H]
quantity unit: %
I10 μM/ICONTROL (mean ± SEM, %) Glu N2C: 99
--
compound: Cc1sc2ncn(CC(=O)N(C)C)c(=O)c2c1-c1ccc(Br)cc1 [1 / 4-Br—Ph / Me / —N(Me)2]
quantity unit: %
I10 μM/ICONTROL (mean ± SEM, %) Glu N2C: 109
--
compound: COc1ccc(C(=O)Cn2cnc3sc(C)c(-c4cccc(I)c4)c3c2=O)cc1 [1 / 3-I—Ph / Me / 4-OMe—Ph]
quantity unit: %
I10 μM/ICONTROL (mean ± SEM, %) Glu N2C: 94
--
compound: COCCn1cc(Cn2cnc3sc(C)c(-c4cccc(Cl)c4)c3c2=O)nn1
quantity unit: %
I10 μM/ICONTROL (mean ± SEM, %) Glu N2C: 93

1 = Cc1sc2ncn(CC(=O)N3CCCC3)c(=O)c2c1-c1ccc(O)cc1 [4-OH—Ph / Me]
2 = Cc1sc2ncn(CC(=O)N3CCCC3)c(=O)c2c1-c1cccc(Cl)c1 [3-Cl—Ph / Me]
3 = Cc1sc2ncn(CC(=O)N3CCCCC3)c(=O)c2c1-c1cccc(I)c1 [1 / 3-I—Ph / Me / —Npiperidine]
Query: Hi! Can you put these in order of I10 μM/ICONTROL (mean ± SEM, %) Glu N2C, lowest number first? Give the labels in the order requested.
Reply: 1, 3, 2

a = Cc1sc2ncn(CC(=O)c3ccc(Cl)cc3Cl)c(=O)c2c1-c1cccc(I)c1 [1 / 3-I—Ph / Me / 2,4-Cl—Ph]
b = Cc1sc2ncn(CC(=O)C3CCCC3)c(=O)c2c1-c1cccc(I)c1 [1 / 3-I—Ph / Me / -cyclopentyl]
c = Cc1sc2ncn(CC(=O)N3CCCC3)c(=O)c2c1-c1cccc([N+](=O)[O-])c1 [3-NO2—Ph / Me]
Query: Ascending by I10 μM/ICONTROL (mean ± SEM, %) Glu N2C, please. I would appreciate it if you listed the labels in the requested order.
Reply: a, b, c
